Could you please report measured FLIPR IC50, GRO-α induced intracellular calcium release for the items listed next?
# tested-system: T1, Human CXCR2 (human, UniProt P25025 1-360)
# T1 sequence: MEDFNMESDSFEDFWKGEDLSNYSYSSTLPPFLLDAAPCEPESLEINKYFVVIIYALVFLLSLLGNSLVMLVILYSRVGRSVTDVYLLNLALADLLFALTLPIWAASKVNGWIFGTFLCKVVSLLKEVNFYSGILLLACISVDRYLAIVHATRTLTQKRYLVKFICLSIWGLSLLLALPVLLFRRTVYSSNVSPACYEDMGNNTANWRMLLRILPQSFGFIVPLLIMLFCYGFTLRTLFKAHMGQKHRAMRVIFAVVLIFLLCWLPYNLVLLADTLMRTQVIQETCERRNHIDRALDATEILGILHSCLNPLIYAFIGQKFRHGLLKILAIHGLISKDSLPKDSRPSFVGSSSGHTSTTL
# assay-summary: cell-based or functional assay

Solved entries:
>>> reported("CXCR20017 (other, not shown: small tags and cut ends) EVQLVESGGGLVQPGGSLRLSCVASGSIVRINTMGWYRQTPGKQRELVADITSGGNINYIDAVKGRFTISRDNTKNTVYLQMNSLKPEDTAVYYCNAEIVVLVGVWTQRARTGNYWGQGTQVTVSSGGGGSGGGGSGGGGSGGGGSGGGGSGGGGSGGGGSEVQLVESGGGLVQPGGSVRLSCVASGIIFRLSALGWTRQGPGKAREWVAGINSDGTTNYADPVKGRFTISRDNAKNTIYLHMDMLKPEDTAVYYCASGKYRGQGTQVTVSS")
"22.9 nM"
>>> reported("CXCR20032 (bispecific antibody, not shown: small tags and cut ends) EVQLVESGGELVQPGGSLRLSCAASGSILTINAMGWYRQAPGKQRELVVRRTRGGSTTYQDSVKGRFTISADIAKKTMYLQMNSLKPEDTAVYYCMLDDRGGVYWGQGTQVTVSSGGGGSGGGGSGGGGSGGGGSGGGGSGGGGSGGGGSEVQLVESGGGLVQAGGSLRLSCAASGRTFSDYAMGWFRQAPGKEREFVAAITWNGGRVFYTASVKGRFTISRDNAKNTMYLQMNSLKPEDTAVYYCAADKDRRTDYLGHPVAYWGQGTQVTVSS")
"14.7 nM"
>>> reported("CXCR20029 (other, not shown: small tags and cut ends) EVQLVESGGGLVQPGGSLRLSCVASGRIFSSNAMGWFRQAPGKEREFVAAITWRSGGSAYYADSAKGRFTISRDNAKNTVYLQMNSLKPEDTAVYYCAAGGSSWLSFPPDYWGQGTQVTVSSGGGGSGGGGSGGGGSGGGGSGGGGSGGGGSGGGGSEVQLVESGGGLVQAGGSLTLSCAVSGSTFRINTMGWYRRAPGKQRELVAARDRGGYINYVDSVKGRFTVSRDNAKPTMYLQMNSLKPEDTAVYYCHAGTQDRTGRNFDRWGQGTQVTVSS")
"17.1 nM"
>>> reported("CXCR20030 (other, not shown: small tags and cut ends) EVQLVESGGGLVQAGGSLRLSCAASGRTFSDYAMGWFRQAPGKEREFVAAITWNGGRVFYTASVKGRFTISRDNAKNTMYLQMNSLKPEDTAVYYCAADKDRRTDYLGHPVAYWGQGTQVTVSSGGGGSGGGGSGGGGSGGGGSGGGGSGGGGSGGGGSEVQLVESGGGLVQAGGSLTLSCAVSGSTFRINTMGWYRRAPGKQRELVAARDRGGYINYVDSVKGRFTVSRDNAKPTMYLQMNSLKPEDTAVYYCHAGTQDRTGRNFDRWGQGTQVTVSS")
"11.8 nM"
>>> reported("CXCR20014 (bispecific antibody, not shown: small tags and cut ends) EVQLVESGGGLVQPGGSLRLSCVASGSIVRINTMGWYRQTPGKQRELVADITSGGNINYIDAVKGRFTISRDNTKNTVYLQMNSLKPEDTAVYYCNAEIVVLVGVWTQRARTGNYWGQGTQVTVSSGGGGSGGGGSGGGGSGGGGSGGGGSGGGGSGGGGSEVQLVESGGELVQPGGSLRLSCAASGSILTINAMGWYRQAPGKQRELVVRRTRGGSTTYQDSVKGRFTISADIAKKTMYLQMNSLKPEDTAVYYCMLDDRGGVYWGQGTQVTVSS")
"6.84 nM"

Would you mind giving FLIPR IC50, GRO-α induced intracellular calcium release for every binder in the list below?
1. CXCR20021 (bispecific antibody, not shown: small tags and cut ends) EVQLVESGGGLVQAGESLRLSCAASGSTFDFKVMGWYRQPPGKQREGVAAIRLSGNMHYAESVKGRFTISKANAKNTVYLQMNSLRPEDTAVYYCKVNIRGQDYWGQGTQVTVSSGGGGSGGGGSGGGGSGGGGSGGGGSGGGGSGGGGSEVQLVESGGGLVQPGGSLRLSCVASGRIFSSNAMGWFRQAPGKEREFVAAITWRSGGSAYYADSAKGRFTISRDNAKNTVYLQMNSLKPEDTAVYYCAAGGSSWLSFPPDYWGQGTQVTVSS
2. CXCR20024 (VHH, not shown: small tags and cut ends) EVQLVESGGGLVQPGGSLRLSCVASGRIFSSNAMGWFRQAPGKEREFVAAITWRSGGSAYYADSAKGRFTISRDNAKNTVYLQMNSLKPEDTAVYYCAAGGSSWLSFPPDYWGQGTQVTVSSGGGGSGGGGSGGGGSGGGGSGGGGSGGGGSGGGGSEVQLVESGGGLVQPGGSLRLSCVASGRIFSSNAMGWFRQAPGKEREFVAAITWRSGGSAYYADSAKGRFTISRDNAKNTVYLQMNSLKPEDTAVYYCAAGGSSWLSFPPDYWGQGTQVTVSS
3. CXCR20025 (bispecific antibody, not shown: small tags and cut ends) EVQLVESGGGLVQAGGSLRLSCAASGRTFSDYAMGWFRQAPGKEREFVAAITWNGGRVFYTASVKGRFTISRDNAKNTMYLQMNSLKPEDTAVYYCAADKDRRTDYLGHPVAYWGQGTQVTVSSGGGGSGGGGSGGGGSGGGGSGGGGSGGGGSGGGGSEVQLVESGGGLVQAGESLRLSCAASGSTFDFKVMGWYRQPPGKQREGVAAIRLSGNMHYAESVKGRFTISKANAKNTVYLQMNSLRPEDTAVYYCKVNIRGQDYWGQGTQVTVSS

["7.32 nM", "26.4 nM", "12.2 nM"]

Notebook: CXCR20026 (bispecific antibody, not shown: small tags and cut ends) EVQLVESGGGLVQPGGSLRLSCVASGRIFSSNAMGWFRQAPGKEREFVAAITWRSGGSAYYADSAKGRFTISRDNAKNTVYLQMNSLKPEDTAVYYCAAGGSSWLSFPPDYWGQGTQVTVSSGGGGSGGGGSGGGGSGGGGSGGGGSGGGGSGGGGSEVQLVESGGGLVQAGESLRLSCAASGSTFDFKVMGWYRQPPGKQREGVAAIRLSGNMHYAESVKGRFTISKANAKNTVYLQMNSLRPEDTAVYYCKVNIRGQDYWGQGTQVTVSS , FLIPR IC50, GRO-α induced intracellular calcium release read as 12.3 nM
